# Kd per entry
# MEASUREMENT_TARGET: T1, soluble FGFR4 receptor protein (human, UniProt P22455 144-369)
# T1 sequence: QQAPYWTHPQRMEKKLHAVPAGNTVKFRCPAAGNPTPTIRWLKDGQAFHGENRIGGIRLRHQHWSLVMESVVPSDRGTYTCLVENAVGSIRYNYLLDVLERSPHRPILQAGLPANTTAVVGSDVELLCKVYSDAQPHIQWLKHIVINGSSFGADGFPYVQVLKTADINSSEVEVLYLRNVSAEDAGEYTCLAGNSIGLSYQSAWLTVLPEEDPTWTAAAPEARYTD
# MEASUREMENT_DESCRIPTION: BLI Octet RED96, antibody on anti-hIgG Fc tip
State the answer as a number, implicitly in nM.

Past entries and their recorded results:
{"columns": ["BINDER", "Kd, nM"],
 "data": [
  ["Ab60 (antibody, human IgG2, kappa, V domains shown, format in the assays not spelled out) VH: EVQLLESGGGVVQPGRSLRLSCAASGFDFAGYAMHWVRQAPGKGLEWVAVISYDGSNKYYADSVKGRFTISRDNSKNTLSLQMNSLRVEDTAIYYCVRGAGRGLTYGPDGFDIWGQGTMVTVSS VL: DIVMTQTPLSLSVTPGQPASISCTSSRSLLHSDGKTYVYWYVQKSGQPPQLLIYELSNRFSGVPDRFSGSGSRTDFTLKISRVEAEDVGVYYCMQYIEAPLTFGGGTKVEIKR", 12.5],
  ["Vh2 combined with the VL of Ab15 (antibody, V domains shown, captured on anti-human IgG Fc tips) VH: EVQLVESGGGVVQPGRSLRLSCAASGFTFSSYAMHWVRQAPGKGLEWVAVISYDGSNKYYADSVKGRFTISRDNSKNTLYLQMNSLRAEDTAVYYCARGAGRGYTYGPDGFDIWGQGTMVTVSS VL: DIVMTQTPLSLSVTPGQPASISCTSSRSLLHSDGKTYVYWYVQKSGQPPQLLIYELSNRFSGVPDRFSGSGSRTDFTLKISRVEAEDVGVYYCMQYIEAPLTFGGGTKVEIK", 2.84],
  ["Vh1 combined with the VL of Ab15 (antibody, V domains shown, captured on anti-human IgG Fc tips) VH: EVQLVESGGGVVQPGRSLRLSCAASGFTFSSYAMHWVRQAPGKGLEWVAVISYDGSNKYYADSVKGRFTISRDNSKNTLYLQMNSLRAEDTAIYYCVRGAGRGYTYGPDGFDIWGQGTMVTVSS VL: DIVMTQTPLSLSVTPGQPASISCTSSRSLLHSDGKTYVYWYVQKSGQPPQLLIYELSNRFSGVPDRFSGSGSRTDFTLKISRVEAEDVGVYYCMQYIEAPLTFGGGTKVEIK", 4.01],
  ["Vk7 combined with the VH of Ab15 (antibody, V domains shown, captured on anti-human IgG Fc tips) VH: EVQLLESGGGVVQPGRSLRLSCAASGFTFSSYAMHWVRQAPGKGLEWVAVISYDGSNKYYADSVKGRFTISRDNSKNTLSLQMNSLRVEDTAIYYCVRGAGRGYTYGPDGFDIWGQGTMVTVSS VL: DIVMTQSPLSLPVTPGEPASISCKSSQSLLHSDGKTYLYWYLQKPGQPPQLLIYELSNRFSGVPDRFSGSGSGTDFTLKISRVEAEDVGVYYCMQYIEAPLTFGGGTKVEIK", 8.33]
]}

Return reported Kd; argument: Ab19 (antibody, human IgG2, kappa, V domains shown, format in the assays not spelled out) VH: EVQLLESGGGVVQPGRSLRLSCAASGFTFSSYAMHWVRQAPGKGLEWVAVISYDGSNKYYADSVKGRFTISRDNSKNTLSLQMNSLRVEDTAIYYCVRGAGRGFTLGPDGFDIWGQGTMVTVSS VL: DIVMTQTPLSLSVTPGQPASISCKSSRSLLHSDGKTYVYWYVQKSGQPPQLLIYELSNRFSGVPDRFSGSGSRTDFTLKISRVEAEDVGVYYCMQYIEAPLTFGGGTKVEIKR
8.63
